assayDetails: Determination of the brain-to-plasma ratio after intraperitoneal administration (plasma and brain homogenate levels by LC-MS/MS)
Type: in vivo, male CD-1 mice
conditionDetails: male, CD-1, mouse, brain/plasma, ip, 50 mg/kg, 3 hours post dose, mean of mice, read-out: Average B:P Ratio
Protocol: In this study, the brain-to-plasma ratio of Compound 2 and Compound 3 was evaluated after intraperitoneal dosing in fasted male CD-1 mice. Test compounds were dosed at 50 mg/kg in sterile water for injection. Plasma and brain homogenate levels were determined at 1 and 3 hours post dose by LC-MS/MS. The dosing solution was diluted in triplicate into mouse plasma and analyzed in parallel with the study samples. […] All concentrations are expressed as mg/mL of the free drug. […]
outcomeMeasure: Kp at 3 h
Answers are plain numbers.

Just so you know, measured Kp at 3 h for COCCN(C)C(=O)c1cc(C(=O)N(C)CCOC)cc(C(=O)N(C)CCOC)c1 [Compound 3] came out at 0.525

Entry source: patent US9828332B2
